Attribute: self-cleavage
B1: CPEB3 Ribozyme (parent)
chain: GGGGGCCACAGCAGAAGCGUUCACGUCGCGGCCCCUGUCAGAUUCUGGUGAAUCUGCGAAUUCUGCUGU

# Variants of: B1
# TEST_PROTOCOL: self-cleavage, relative activity (ratio to wild type); higher = more cleavage; co-transcriptional
PARAMETER_MEASURED: self-cleavage

RESIDUES	EXPERIMENTAL_RESULT
GGGGGCCACAGCAGAAGCGUUCAUGUCGCGGCCCCUGUCAGAUUCUGGUGAAUCUGCGAAUUUUGCUGU [C24U C63U]	0.719
GGGGGCCACAGCAGACGCGUUCACGUCGCAGCCCCUGUCAGAUUCUGGUGAAUCUGCGAAUUCUGCUGU [A16C G30A]	0.188
GUGGGCCACAGCAGAAGCGUUCACGUCGCGGCCCCUGUCAGAUUCUGGUGAAUCCGCGAAUUCUGCUGU [G2U U55C]	0.0989
GGGGGCCACAGAAGAAGCGUUCACGUCGCGGCCCCUUUCAGAUUCUGGUGAAUCUGCGAAUUCUGCUGU [C12A G37U]	0.18
GGGGGCCACAGCAGAAGCGUUCACGUCGCGGCCCCUGUCAGAUUCUGGUGAAUCUGCGAAUUGAGCUGU [C63G U64A]	0.689
GGGGGCCACAGCAGAAGCGUUCACGUCGCGGCCCCGGUCAGAUUCUGGUGAAUCUGCGAAUUCUGCUCU [U36G G68C]	0.436
GGGAGCCACAGCAGAAGCGUUCACGUCGCGGGCCCUGUCAGAUUCUGGUGAAUCUGCGAAUUCUGCUGU [G4A C32G]	0.171
GGGGGCGACAGCAGAAGCGUUCACGUCGCGGCCCCUGUCAGUUUCUGGUGAAUCUGCGAAUUCUGCUGU [C7G A42U]	0.303
GGGGGCCACAGCAGAAGCGUUCACGUCGCGGCCCUUGUCAGAUUCUGGUGAAUCAGCGAAUUCUGCUGU [C35U U55A]	0.82
GGGGGCCACAGCAUAAGCGUUCACGUGGCGGCCCCUGUCAGAUUCUGGUGAAUCUGCGAAUUCUGCUGU [G14U C27G]	0.154
UGGGGCCACAGCAGAAGCGUUCACGUCGCGGCCCCUGUCAGAUUCUGGUGAAUCUGCAAAUUCUGCUGU [G1U G58A]	0.0859
GGGGGCCACAGCAGAAGCGUUCACGUCUCGGCCCCUGUCAGAUUCUGGUGAAUCUACGAAUUCUGCUGU [G28U G56A]	0.14
GGGGGCCACAGCAGAAGCGUUCACGUCGGGGCCCCUGUCAGAUUCUGGUGAAUCUGCGAAUUCUGGUGU [C29G C66G]	0.369
GGGGGCCACAGCAGAAGCGUUCACGUCGCGGCCCCUGUCAGAUUCUGGGGAAUCUGCGGAUUCUGCUGU [U49G A59G]	0.96
GGGGGCCACAGCAGAAGCGUUCACCUCGCGGCCCCUGUCAGAUUCUGGUGAAUCUGCGAAAUCUGCUGU [G25C U61A]	0.193
GGGGGCCACAGCAGAAGCGUUCACGACGCGGCACCUGUCAGAUUCUGGUGAAUCUGCGAAUUCUGCUGU [U26A C33A]	0.682
GGGGGCCACAGCAGAAGCGUUCACGUCGCGGCCCCUGUCAGAUUCAGGUGAAUCUGCGAAUUCCGCUGU [U46A U64C]	0.98
GGCGGCCACAGCAGAAGCGUUCACGUCGCGGCCCCUGUCACAUUCUGGUGAAUCUGCGAAUUCUGCUGU [G3C G41C]	0.0352
GGGGGCCACAGCAGAAGCGUUCACGUCGCGGCCCCUGUCAGGUUCUGGUGAAUCUGCGAAUUCUGCUUU [A42G G68U]	1.01
GGGGGCCACAGCAGAACCGUUCACGUCGCGGCCCCUGUCAGAUUCUGGUGAAUCUGCGCAUUCUGCUGU [G17C A59C]	0.104
GGGGGCCACAGCAGAAGCGUUCACGUCGCGGCCCCUGUCAGAUUCUGGUGAACCUGCGAAUUCUGCAGU [U53C U67A]	0.793
GGGGGCCACAGCAGAAGCGUUCACGUCGCGGCCCCUGUCAGAUUCUAGUGAAUCUGCGAAUUCUGCAGU [G47A U67A]	0.969
GGGGGCCACAGCAGAAGCGUUCACGUCGCGGCCCCUGUCAGAUUUUGGUGAAUCUGCGAAUUGUGCUGU [C45U C63G]	0.816
GGGGGCCACAGCAGAAGCGUUCACGUCGCGGCCCCUGUCAGAUUCUGGAGAAUCUCCGAAUUCUGCUGU [U49A G56C]	0.765
GGUGGCCACAGCAGAAGCGUUCACGUCGCGGCCCCUGUCAGAUUGUGGUGAAUCUGCGAAUUCUGCUGU [G3U C45G]	0.112
GGGGGCCACAGCAGAAGCGUUCACGUCGCGGCCCCUGUCAGAUUCUGGUGAAUGUGCGAAUUCUGCUGC [C54G U69C]	1.04
GGGGUCCACAGCAGAAGCGUUCACGUCGCGGCCCCUGUCAGAUUCUGGUGAAUCUACGAAUUCUGCUGU [G5U G56A]	0.137
GGGGGCCACAGCAGAAGCGUUCACGUCGCGGCCCCUGUCAUAUUCUGGGGAAUCUGCGAAUUCUGCUGU [G41U U49G]	0.848
GGGGGCCGCAGCAGAAGCAUUCACGUCGCGGCCCCUGUCAGAUUCUGGUGAAUCUGCGAAUUCUGCUGU [A8G G19A]	0.0612
GGGGGCCACAGCAGAAGCGUUCACGUCUCGGCCCUUGUCAGAUUCUGGUGAAUCUGCGAAUUCUGCUGU [G28U C35U]	0.192
GGGGGUCACAGCAGAAGCGCUCACGUCGCGGCCCCUGUCAGAUUCUGGUGAAUCUGCGAAUUCUGCUGU [C6U U20C]	0.144
GGGGGCCACAUCAGAAGCGUUCACGUCGCGGCCCCUGUCAGUUUCUGGUGAAUCUGCGAAUUCUGCUGU [G11U A42U]	0.581
GGGGGCCACAGCAGAAACGUUCACGUCGCGGCCCCUGUCAGAUUCUGUUGAAUCUGCGAAUUCUGCUGU [G17A G48U]	0.614
GGGGGCCACAGCAGAAGCGUUCACGUCGCGGCCCCUGUCAGAUUCUGGUGAUUCUGCGAAUCCUGCUGU [A52U U62C]	0.765
GGGGGCCACAGCGGAAGCGUUCACGUCGCGGCCCCUGUCAGAUUCUGGUGUAUCUGCGAAUUCUGCUGU [A13G A51U]	0.905
GGGGGCCACAGCAGAAACGUUCACGUCGCGGCCCCUGUCAGAUUCUGGUGAAUCUACGAAUUCUGCUGU [G17A G56A]	0.234
GGGGGCCACAGCAGAAGCGUUCACGUCGCGGCCCCUGCCAUAUUCUGGUGAAUCUGCGAAUUCUGCUGU [U38C G41U]	0.705
GGGGGUCACAGCUGAAGCGUUCACGUCGCGGCCCCUGUCAGAUUCUGGUGAAUCUGCGAAUUCUGCUGU [C6U A13U]	0.867
GGGGGCCACAGCAGAAACGUUUACGUCGCGGCCCCUGUCAGAUUCUGGUGAAUCUGCGAAUUCUGCUGU [G17A C22U]	0.148
GGGGGCCACAGCAGAAGCGUUCACGUCGCGGCCCCUGUCAGACUCUGGUGAAUCUGCGAAAUCUGCUGU [U43C U61A]	0.764
GGGGGCCACAGCAGAAGCGUUCACGUCGCGGCCCCUGUCAGAUUCUGGUGAAUCUGGGAAUUGUGCUGU [C57G C63G]	0.285
GGGGGCCACAGCAGAAGCGUUCACGUCGCGGCCCCUGUCAGAUUCUGGUGAAUCUGCGAAUUAUGUUGU [C63A C66U]	0.619
GGGGGCCACAGCAGACGCGUUCACGUCGCGGCCCCUGUCAGAUUCUGGUGAAUCUGCGAAAUCUGCUGU [A16C U61A]	0.418
GGGGGCCACAGCAGAAGCGUUCACGUCGCGGCCGCUGUCAGAAUCUGGUGAAUCUGCGAAUUCUGCUGU [C34G U43A]	0.551
GGGGGCCACAGCAGAAGCGUUCACGUCGCGGCACCUGUCAGAUUCUGGUGAAUCUACGAAUUCUGCUGU [C33A G56A]	0.758
GGGGGCCACAGCAGAAGCGUUCACGUCGCGGCCCCUGUCACAUUCCGGUGAAUCUGCGAAUUCUGCUGU [G41C U46C]	0.63

Value source: the RNAGym collection of RNA variant scans (doi:10.7554/elife.80360)
